Molecular target: T1, TIGIT (human)
T1 chain: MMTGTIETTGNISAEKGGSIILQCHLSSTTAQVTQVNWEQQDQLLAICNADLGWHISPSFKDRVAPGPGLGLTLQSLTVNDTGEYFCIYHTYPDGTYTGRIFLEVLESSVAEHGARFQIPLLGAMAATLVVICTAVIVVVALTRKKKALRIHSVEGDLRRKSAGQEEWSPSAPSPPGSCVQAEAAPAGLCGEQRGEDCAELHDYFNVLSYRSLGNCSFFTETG
Assay: cell-based or functional assay
recorded metric: IL-2 luciferase reporter, Normalized Fold Change from CD155-ECD (fold)

>>> reading("variant CD155 IgV-Fc V9L, P18F, T45A, S65A, S67V, R78K, L79V, F91S, T107M, S114T (Fc fusion) WPPPGTGDLVVQAPTQVFGFLGDSVTLPCYLQVPNMEVTHVSQLAWARHGESGSMAVFHQTQGPAYVESKRLEFVAAKVGAELRNASLRMSGLRVEDEGNYTCLFVMFPQGSRTVDIWLRVLGSGGGGSEPKSSDKTHTCPPCPAPEAEGAPSVFLFPPKPKDTLMISRTPEVTCVVVDVSHEDPEVKFNWYVDGVEVHNAKTKPREEQYNSTYRVVSVLTVLHQDWLNGKEYKCKVSNKALPAPIEKTISKAKGQPREPQVYTLPPSRDELTKNQVSLTCLVKGFYPSDIAVEWESNGQPENNYKTTPPVLDSDGSFFLYSKLTVDKSRWQQGNVFSCSVMHEALHNHYTQKSLSLSPGK")
6
